The origin of these recorded values is paper PMC6009876.

# Test system: Ramos
# measurement_description: Anti-proliferative activity, MTT reduction method
# Assay type: cell-based
# conditions_used: Homo sapiens, mean of at least two experiments
measured_property: pIC50
// pIC50 here means minus log10 of the molar concentration (mol/L)

>>> measured_number("COc1ccc(-c2ccc3ncnc(O[C@H]4CCN(C(=O)C5CCOCC5)C4)c3c2)cn1 [Compound 12d]")
5.87

What value of pIC50 has been reported for the following compound? COc1ccc(-c2ccc3ncnc(N[C@H]4CCCN(C(=O)C5CC5)C4)c3c2)cn1 [Compound 14b]
5.87

---

# target: PI3Kδ (Homo sapiens)
# Sequence (O00329 whole entry): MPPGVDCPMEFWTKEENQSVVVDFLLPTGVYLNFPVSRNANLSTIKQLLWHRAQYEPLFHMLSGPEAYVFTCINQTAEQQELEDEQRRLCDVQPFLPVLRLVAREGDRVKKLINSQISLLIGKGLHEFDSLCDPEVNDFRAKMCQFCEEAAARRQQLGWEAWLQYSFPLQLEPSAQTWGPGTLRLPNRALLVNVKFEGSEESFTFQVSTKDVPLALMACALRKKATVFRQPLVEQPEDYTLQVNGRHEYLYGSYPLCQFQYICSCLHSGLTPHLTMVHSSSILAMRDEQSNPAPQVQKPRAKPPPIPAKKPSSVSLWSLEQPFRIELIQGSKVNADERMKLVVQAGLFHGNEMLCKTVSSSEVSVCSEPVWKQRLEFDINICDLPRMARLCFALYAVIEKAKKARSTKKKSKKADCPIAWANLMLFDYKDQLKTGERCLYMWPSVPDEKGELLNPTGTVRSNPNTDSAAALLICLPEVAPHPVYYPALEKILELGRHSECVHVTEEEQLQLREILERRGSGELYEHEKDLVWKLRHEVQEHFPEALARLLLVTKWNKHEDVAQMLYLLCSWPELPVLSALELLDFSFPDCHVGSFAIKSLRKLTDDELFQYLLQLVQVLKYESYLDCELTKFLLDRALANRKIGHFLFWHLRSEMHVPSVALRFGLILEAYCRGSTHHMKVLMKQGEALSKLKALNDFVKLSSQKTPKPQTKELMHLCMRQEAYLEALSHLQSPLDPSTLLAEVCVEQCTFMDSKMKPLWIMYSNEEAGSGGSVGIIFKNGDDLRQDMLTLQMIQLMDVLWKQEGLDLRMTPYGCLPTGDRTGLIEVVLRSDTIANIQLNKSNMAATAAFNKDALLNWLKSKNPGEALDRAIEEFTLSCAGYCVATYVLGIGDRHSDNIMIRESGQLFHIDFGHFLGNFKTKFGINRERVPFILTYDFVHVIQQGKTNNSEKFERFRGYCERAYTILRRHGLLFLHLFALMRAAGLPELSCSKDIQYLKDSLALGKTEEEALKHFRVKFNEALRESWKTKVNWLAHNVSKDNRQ
# Sequence (P27986 whole entry partner): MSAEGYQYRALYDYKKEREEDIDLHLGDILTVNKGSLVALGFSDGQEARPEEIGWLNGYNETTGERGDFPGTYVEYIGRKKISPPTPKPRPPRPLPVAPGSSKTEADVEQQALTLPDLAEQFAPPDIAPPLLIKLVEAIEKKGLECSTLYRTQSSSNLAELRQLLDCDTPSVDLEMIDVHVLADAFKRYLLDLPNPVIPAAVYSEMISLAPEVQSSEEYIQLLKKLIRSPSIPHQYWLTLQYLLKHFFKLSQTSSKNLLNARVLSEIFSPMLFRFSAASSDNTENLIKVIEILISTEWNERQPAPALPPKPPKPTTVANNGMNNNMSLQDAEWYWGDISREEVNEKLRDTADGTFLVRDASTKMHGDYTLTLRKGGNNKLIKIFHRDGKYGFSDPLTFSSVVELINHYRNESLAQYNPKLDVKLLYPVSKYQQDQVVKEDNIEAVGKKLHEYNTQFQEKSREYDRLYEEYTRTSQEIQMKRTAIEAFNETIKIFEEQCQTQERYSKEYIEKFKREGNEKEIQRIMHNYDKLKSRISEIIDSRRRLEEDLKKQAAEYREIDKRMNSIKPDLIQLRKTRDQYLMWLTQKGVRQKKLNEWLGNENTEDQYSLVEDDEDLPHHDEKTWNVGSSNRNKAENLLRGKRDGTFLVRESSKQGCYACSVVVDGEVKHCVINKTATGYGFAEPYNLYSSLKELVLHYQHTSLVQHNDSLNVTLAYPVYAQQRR
# measurement_description: PI3Kδ inhibitory activity
# Assay type: biochemical
# conditions_used: mean of at least two experiments; read-out: PI3Kδ IC50
measured_property: IC50
# number then unit; no other words

>>> result("COc1ccc(-c2ccc3ncnc(O[C@H]4CCN(C(=O)C5CC5)C4)c3c2)cn1 [Compound 12b]")
"9.3 nM"
>>> result("COc1ccc(-c2ccc3ncnc(N[C@H]4CCCN(C(=O)C5CCOCC5)C4)c3c2)cn1 [Compound 14e]")
"5.2 nM"
>>> result("COc1ccc(-c2ccc3ncnc(O[C@H]4CCN(C(=O)C5CCC5)C4)c3c2)cn1 [Compound 12c]")
"6.1 nM"
>>> result("COc1ccc(-c2ccc3ncnc(N[C@H]4CCCN(C(=O)C5CCC5)C4)c3c2)cn1 [Compound 14c]")
"3.9 nM"
>>> result("COc1ccc(-c2ccc3ncnc(N[C@H]4CCCN(C(=O)C5CCCC5)C4)c3c2)cn1 [Compound 14d]")
"8.7 nM"
>>> result("COc1ccc(-c2ccc3ncnc(O[C@H]4CCN(C(=O)C5CCOCC5)C4)c3c2)cn1 [Compound 12d]")
"4.9 nM"

Could you now look at the following molecule, please?
Entry under review: COc1ccc(-c2ccc3ncnc(N[C@H]4CCCN(C(=O)C5CC5)C4)c3c2)cn1 [Compound 14b] . Reported IC50?
3 nM
